The reported numbers originate from ChEMBL document CHEMBL6083248.

Tested on: MCF7
experiment.description: Antiproliferative activity against human MCF7 cells assessed as inhibition of cell growth incubated for 48 hrs by MTT assay
Assay type: functional, cell-based
condition: MCF7, 48 h
pIC50: −log10 of the molar value.
observed.property: pIC50

INSERT INTO results (molecule, measurement) VALUES
  ('FC(F)(F)c1ccc(-n2cc3cc4c5ccccc5n(Cc5cccc(Cl)c5)c4c[n+]3c2)cc1', 5.31),
  ('CCCCn1c2ccccc2c2cc3cn(-c4ccccc4)c[n+]3cc21', 4.81),
  ('FC(F)(F)c1ccc(-n2cc3cc4c5ccccc5n(CCCc5ccccc5)c4c[n+]3c2)cc1', 5.48),
  ('Cn1c2ccccc2c2cc3cn(-c4cc(F)cc(F)c4)c[n+]3cc21', 5.04),
  ('COc1ccc(Cn2c3ccccc3c3cc4cn(-c5ccccc5)c[n+]4cc32)cc1', 5.06),
  ('CN(C)CCn1cc2cc3c4ccccc4n(Cc4ccccc4)c3c[n+]2c1', 5.34),
  ('CN(C)c1ccc(-n2cc3cc4c5ccccc5n(Cc5cccc(Cl)c5)c4c[n+]3c2)cc1', 5.10),
  ('CCCCn1c2ccccc2c2cc3cn(-c4ccc5ccccc5c4)c[n+]3cc21', 4.90),
  ('Clc1cccc(Cn2c3ccccc3c3cc4cn(Cc5ccccc5)c[n+]4cc32)c1', 4.77);
